Quick reference: logD of the listed items.
Assay: method code SF-AS, from DOI: 10.1248/cpb.24.61
Settings: pH 7.4
Number only, please.

> print(dat)
                                   compound  recordedendpoint  measurement
1  Cc1c(N(C)C(C)C(=O)N(C)C)c(=O)n(-c2ccccc2)n1C (configuration not stated)              logD         0.69
2  Cc1c(C(=O)C(C)N(C)C)c(=O)n(-c2ccccc2)n1C (configuration not stated)              logD        -0.78
3     Cc1c(C(=O)CN(C)C)c(=O)n(-c2ccccc2)n1C              logD        -0.95
4         Cc1c(NC(N)=O)c(=O)n(-c2ccccc2)n1C              logD        -0.92
5    Cc1c(NC(=O)CN(C)C)c(=O)n(-c2ccccc2)n1C              logD        -0.37

## Task Given the compound Cc1c(NC(C)C(=O)N(C)C)c(=O)n(-c2ccccc2)n1C (configuration not stated) , what is its reported logD?
## Result 0.35

## Task Follow-up item: CCC(C(=O)c1c(C)n(C)n(-c2ccccc2)c1=O)N(C)C (configuration not stated)
## Result -0.24
